Recorded MIC for the following molecules
Tested on: Streptococcus pneumoniae
Protocol Description: In vitro antibacterial activity of 5979 strain of Gram positive bacteria Streptococcus pneumoniae
Type: functional
Measurement Name: MIC

Smiles String	Experimental Target	Measurement Name	Reported
CC[C@H]1OC(=O)/C(C)=C/[C@H](C)[C@@H](O[C@@H]2O[C@H](C)C[C@H](N(C)C)[C@H]2O)[C@@](C)(OC)C[C@@H](C)C(=O)[C@H](C)[C@H]2N(NCc3cccnc3)C(=O)O[C@]12C	Streptococcus pneumoniae	MIC	> 64 µg/mL
CC[C@H]1OC(=O)/C(C)=C/[C@H](C)[C@@H](O[C@@H]2O[C@H](C)C[C@H](N(C)C)[C@H]2O)[C@@](C)(OC)C[C@@H](C)C(=O)[C@H](C)[C@H]2N(NC/C=C/c3ccc([N+](=O)[O-])cc3)C(=O)O[C@]12C	Streptococcus pneumoniae	MIC	64 µg/mL
CC[C@H]1OC(=O)/C(C)=C/[C@H](C)[C@@H](O[C@@H]2O[C@H](C)C[C@H](N(C)C)[C@H]2O)[C@@](C)(OC)C[C@@H](C)C(=O)[C@@H](C)[C@H]2N(NCCCc3ccccc3)C(=O)O[C@]12C	Streptococcus pneumoniae	MIC	16 µg/mL
CC[C@H]1OC(=O)/C(C)=C/[C@H](C)[C@@H](O[C@@H]2O[C@H](C)C[C@H](N(C)C)[C@H]2O)[C@@](C)(OC)C[C@@H](C)C(=O)[C@H](C)[C@H]2N(NCc3ccccc3CO)C(=O)O[C@]12C	Streptococcus pneumoniae	MIC	> 128 µg/mL
CC[C@H]1OC(=O)/C(C)=C/[C@H](C)[C@@H](O[C@@H]2O[C@H](C)C[C@H](N(C)C)[C@H]2O)[C@@](C)(OC)C[C@@H](C)C(=O)[C@H](C)[C@H]2N(NCCCc3ccc(F)cc3)C(=O)O[C@]12C	Streptococcus pneumoniae	MIC	64 µg/mL
CC[C@H]1OC(=O)/C(C)=C/[C@H](C)[C@@H](O[C@@H]2O[C@H](C)C[C@H](N(C)C)[C@H]2O)[C@@](C)(OC)C[C@@H](C)C(=O)[C@H](C)[C@H]2N(NCCCn3cnc(-c4ccccc4)c3)C(=O)O[C@]12C	Streptococcus pneumoniae	MIC	> 128 µg/mL
CC[C@H]1OC(=O)/C(C)=C/[C@H](C)[C@@H](O[C@@H]2O[C@H](C)C[C@H](N(C)C)[C@H]2O)[C@@](C)(OC)C[C@@H](C)C(=O)[C@H](C)[C@H]2N(NCc3ccc(NC(C)=O)cc3)C(=O)O[C@]12C	Streptococcus pneumoniae	MIC	> 64 µg/mL
CC[C@H]1OC(=O)/C(C)=C/[C@H](C)[C@@H](O[C@@H]2O[C@H](C)C[C@H](N(C)C)[C@H]2O)[C@@](C)(OC)C[C@@H](C)C(=O)[C@H](C)[C@H]2N(NCCCn3nc4ccccc4n3)C(=O)O[C@]12C	Streptococcus pneumoniae	MIC	> 128 µg/mL
CC[C@H]1OC(=O)/C(C)=C/[C@H](C)[C@@H](O[C@@H]2O[C@H](C)C[C@H](N(C)C)[C@H]2O)[C@@](C)(OC)C[C@@H](C)C(=O)[C@H](C)[C@H]2N(NCCCc3ccc(NC(C)=O)cc3)C(=O)O[C@]12C	Streptococcus pneumoniae	MIC	> 128 µg/mL

###

System: Staphylococcus aureus
Protocol Description: In vitro antibacterial activity of A5177 strain of Gram positive bacteria Staphylococcus aureus
Type: functional
Listed next: entries and their corresponding MIC.

Smiles String	MIC
CC[C@H]1OC(=O)/C(C)=C/[C@H](C)[C@@H](O[C@@H]2O[C@H](C)C[C@H](N(C)C)[C@H]2O)[C@@](C)(OC)C[C@@H](C)C(=O)[C@H](C)[C@H]2N(NCCCc3ccc(Cl)cc3Cl)C(=O)O[C@]12C	0.39 mg/L
CC[C@H]1OC(=O)/C(C)=C/[C@H](C)[C@@H](O[C@@H]2O[C@H](C)C[C@H](N(C)C)[C@H]2O)[C@@](C)(OC)C[C@@H](C)C(=O)[C@H](C)[C@H]2N(NCc3ccncc3)C(=O)O[C@]12C	0.2 mg/L

###

Test system: Streptococcus pneumoniae
Protocol Description: In vitro antibacterial activity of 5649 strain of Gram positive bacteria Streptococcus pneumoniae
Format: functional
Reported MIC values for a set of compounds
Measurement Name: MIC

Smiles String	Measurement Name	Reported
CC[C@H]1OC(=O)/C(C)=C/[C@H](C)[C@@H](O[C@@H]2O[C@H](C)C[C@H](N(C)C)[C@H]2O)[C@@](C)(OC)C[C@@H](C)C(=O)[C@H](C)[C@H]2N(NCc3ccc(C#N)cc3)C(=O)O[C@]12C	MIC	0.5 µg/mL
CC[C@H]1OC(=O)/C(C)=C/[C@H](C)[C@@H](O[C@@H]2O[C@H](C)C[C@H](N(C)C)[C@H]2O)[C@@](C)(OC)C[C@@H](C)C(=O)[C@H](C)[C@H]2N(NCc3cccc(O)c3)C(=O)O[C@]12C	MIC	1 µg/mL
CC[C@H]1OC(=O)/C(C)=C/[C@H](C)[C@@H](O[C@@H]2O[C@H](C)C[C@H](N(C)C)[C@H]2O)[C@@](C)(OC)C[C@@H](C)C(=O)[C@H](C)[C@H]2N(NCc3cc([N+](=O)[O-])ccc3O)C(=O)O[C@]12C	MIC	0.25 µg/mL
CC[C@H]1OC(=O)/C(C)=C/[C@H](C)[C@@H](O[C@@H]2O[C@H](C)C[C@H](N(C)C)[C@H]2O)[C@@](C)(OC)C[C@@H](C)C(=O)[C@H](C)[C@H]2N(NC/C=C/c3ccccc3)C(=O)O[C@]12C	MIC	1 µg/mL

###

System: Streptococcus pyogenes
Protocol Description: In vitro antibacterial activity of 930 strain of Gram positive bacteria Streptococcus pyogenes
Type: functional
Listed next: entries and their corresponding MIC.
Measurement Name: MIC (µg/mL)

Smiles String	Qualifying Sign	Reported
CC[C@H]1OC(=O)/C(C)=C/[C@H](C)[C@@H](O[C@@H]2O[C@H](C)C[C@H](N(C)C)[C@H]2O)[C@@](C)(OC)C[C@@H](C)C(=O)[C@H](C)[C@H]2N(NC/C=C/c3ccc(N)cc3)C(=O)O[C@]12C	>	128
CC[C@H]1OC(=O)/C(C)=C/[C@H](C)[C@@H](O[C@@H]2O[C@H](C)C[C@H](N(C)C)[C@H]2O)[C@@](C)(OC)C[C@@H](C)C(=O)[C@@H](C)[C@H]2N(NC/C=C/c3ccccc3)C(=O)O[C@]12C	=	16

###

Tested on: Streptococcus pyogenes
Protocol Description: In vitro antibacterial activity of 930 strain of Gram positive bacteria Streptococcus pyogenes
Format: functional

Smiles String	Experimental Target	MIC
CC[C@H]1OC(=O)/C(C)=C/[C@H](C)[C@@H](O[C@@H]2O[C@H](C)C[C@H](N(C)C)[C@H]2O)[C@@](C)(OC)C[C@@H](C)C(=O)[C@H](C)[C@H]2N(NC/C=C/c3ccc(NC(C)=O)cc3)C(=O)O[C@]12C	Streptococcus pyogenes	> 64 µg/mL
CC[C@H]1OC(=O)/C(C)=C/[C@H](C)[C@@H](O[C@@H]2O[C@H](C)C[C@H](N(C)C)[C@H]2O)[C@@](C)(OC)C[C@@H](C)C(=O)[C@H](C)[C@H]2N(NCCCn3cnc(-c4ccccc4)c3)C(=O)O[C@]12C	Streptococcus pyogenes	128 µg/mL
CC[C@H]1OC(=O)/C(C)=C/[C@H](C)[C@@H](O[C@@H]2O[C@H](C)C[C@H](N(C)C)[C@H]2O)[C@@](C)(OC)C[C@@H](C)C(=O)[C@H](C)[C@H]2N(NCc3ccc(O)cc3)C(=O)O[C@]12C	Streptococcus pyogenes	> 128 µg/mL

###

Tested on: Streptococcus pneumoniae
Protocol Description: In vitro antibacterial activity of 5649 strain of Gram positive bacteria Streptococcus pneumoniae
Type: functional

Compound	Qualifying Sign	MIC (µg/mL)
CC[C@H]1OC(=O)/C(C)=C/[C@H](C)[C@@H](O[C@@H]2O[C@H](C)C[C@H](N(C)C)[C@H]2O)[C@@](C)(OC)C[C@@H](C)C2=NN3C(=O)O[C@@]1(C)[C@H]3[C@H]2C	>	128
CC[C@H]1OC(=O)C(C)C(=O)[C@H](C)[C@@H](O[C@@H]2O[C@H](C)C[C@H](N(C)C)[C@H]2O)[C@@](C)(OC)C[C@@H](C)C(=O)[C@H](C)[C@H]2N(NCCCc3ccnc4ccccc34)C(=O)O[C@]12C (some centres undefined)	=	0.5
CC[C@H]1OC(=O)/C(C)=C/[C@H](C)[C@@H](O[C@@H]2O[C@H](C)C[C@H](N(C)C)[C@H]2O)[C@@](C)(OC)C[C@@H](C)C(=O)[C@H](C)[C@H]2N(NCc3ccc([N+](=O)[O-])cc3)C(=O)O[C@]12C	=	1
CC[C@H]1OC(=O)/C(C)=C/[C@H](C)[C@@H](O[C@@H]2O[C@H](C)C[C@H](N(C)C)[C@H]2O)[C@@](C)(OC)C[C@@H](C)C(=O)[C@H](C)[C@H]2N(NCc3cccnc3)C(=O)O[C@]12C	=	1
CC[C@H]1OC(=O)/C(C)=C/[C@H](C)[C@@H](O[C@@H]2O[C@H](C)C[C@H](N(C)C)[C@H]2O)[C@@](C)(OC)C[C@@H](C)C(=O)[C@H](C)[C@H]2N(NCCCc3ccccc3Cl)C(=O)O[C@]12C	=	1
CC[C@H]1OC(=O)/C(C)=C/[C@H](C)[C@@H](O[C@@H]2O[C@H](C)C[C@H](N(C)C)[C@H]2O)[C@@](C)(OC)C[C@@H](C)C(=O)[C@H](C)[C@H]2N(NCCc3ccc(Oc4ccccc4)cc3)C(=O)O[C@]12C	=	2
CC[C@H]1OC(=O)/C(C)=C/[C@H](C)[C@@H](O[C@@H]2O[C@H](C)C[C@H](N(C)C)[C@H]2O)[C@@](C)(OC)C[C@@H](C)C(=O)[C@H](C)[C@H]2N(NCc3ccncc3)C(=O)O[C@]12C	=	1
CC[C@H]1OC(=O)/C(C)=C/[C@H](C)[C@@H](O[C@@H]2O[C@H](C)C[C@H](N(C)C)[C@H]2O)[C@@](C)(OC)C[C@@H](C)C(=O)[C@H](C)[C@H]2N(NCCCc3ccc(OC)cc3)C(=O)O[C@]12C	=	2
CC[C@H]1OC(=O)/C(C)=C/[C@H](C)[C@@H](O[C@@H]2O[C@H](C)C[C@H](N(C)C)[C@H]2O)[C@@](C)(OC)C[C@@H](C)C(=O)[C@H](C)[C@H]2N(NCc3ccc(N(C)C)cc3)C(=O)O[C@]12C	=	1
